measured on: rat His-Gαi3 (Rattus norvegicus)
Construct: gene Gnai3
Sequence (P08753 whole entry): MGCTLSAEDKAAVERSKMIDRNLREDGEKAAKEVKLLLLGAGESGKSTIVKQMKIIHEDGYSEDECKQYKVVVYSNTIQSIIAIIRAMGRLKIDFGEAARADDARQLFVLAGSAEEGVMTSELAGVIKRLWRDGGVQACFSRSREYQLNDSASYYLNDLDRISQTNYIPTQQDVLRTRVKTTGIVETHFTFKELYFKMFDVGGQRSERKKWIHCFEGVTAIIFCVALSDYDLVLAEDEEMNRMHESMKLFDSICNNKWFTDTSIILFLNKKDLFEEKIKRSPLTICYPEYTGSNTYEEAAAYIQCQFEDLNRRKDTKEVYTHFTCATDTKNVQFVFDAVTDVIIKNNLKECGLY
Sequence (Q3V6T2 1671-1701 partner): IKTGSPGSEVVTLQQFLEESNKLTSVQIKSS
experiment description: fluorescence polarization competition
Format: binding
condition notes: read-out: IC50

chem smiles	IC50
O=C(O)C1=CC(=C(c2ccc(O)c(C(=O)O)c2)c2ccc(O)c(C(=O)O)c2)C=CC1=O	~5 µM
O=C(Nc1cccc(C(=O)Nc2ccc(S(=O)(=O)O)c3cc(S(=O)(=O)O)cc(S(=O)(=O)O)c23)c1)Nc1cccc(C(=O)Nc2ccc(S(=O)(=O)O)c3cc(S(=O)(=O)O)cc(S(=O)(=O)O)c23)c1	~5 µM
Cc1ccc(C(=O)Nc2ccc(S(=O)(=O)O)c3cc(S(=O)(=O)O)cc(S(=O)(=O)O)c23)cc1NC(=O)c1cccc(NC(=O)Nc2cccc(C(=O)Nc3cc(C(=O)Nc4ccc(S(=O)(=O)O)c5cc(S(=O)(=O)O)cc(S(=O)(=O)O)c45)ccc3C)c2)c1	~50 µM
